Cited source: ChEMBL document CHEMBL1151133

test: Cytotoxicity against golden hamster CER cells after 2 days by neutral red uptake assay; type: cell-based, Mesocricetus auratus; details: read-out: TC50
Listed here: items and their measured CC50 at 48 h.
measured.endpoint: CC50 at 48 h (µg/mL)

>  <structure>
C[C@H]1[C@H](C)CC[C@]2(C(=O)O[C@@H]3O[C@H](CO)[C@@H](O)[C@H](O)[C@H]3O)CC[C@]3(C(=O)O)C(=CC[C@@H]4[C@@]5(C)CC[C@H](O[C@@H]6O[C@H](CO)[C@@H](O)[C@H](O)[C@H]6O)C(C)(C)[C@@H]5CC[C@]43C)[C@H]12

>  <measured.endpoint>
CC50 at 48 h

>  <reported.result>
150

$$$$
>  <structure>
C[C@H]1[C@H](C)CC[C@]2(C(=O)O[C@@H]3O[C@H](CO)[C@@H](O)[C@H](O)[C@H]3O)CC[C@]3(C(=O)O)C(=CC[C@@H]4[C@@]5(C)CC[C@H](O[C@@H]6O[C@H](C)[C@H](O)[C@H](O)[C@H]6O)C(C)(C)[C@@H]5CC[C@]43C)[C@H]12

>  <measured.endpoint>
CC50 at 48 h

>  <reported.result>
80

$$$$
>  <structure>
C[C@H]1[C@H](C)CC[C@]2(C(=O)O)CC[C@]3(C(=O)O[C@@H]4O[C@H](CO)[C@@H](O)[C@H](O)[C@H]4O)C(=CC[C@@H]4[C@@]5(C)CC[C@H](O[C@@H]6O[C@H](CO)[C@@H](O)[C@H](O)[C@H]6O)C(C)(C)[C@@H]5CC[C@]43C)[C@H]12

>  <measured.endpoint>
CC50 at 48 h

>  <reported.result>
150

$$$$
>  <structure>
C[C@H]1[C@H](C)CC[C@]2(C(=O)O)CC[C@]3(C(=O)O)C(=CC[C@@H]4[C@@]5(C)CC[C@H](O[C@@H]6O[C@H](CO)[C@@H](O)[C@H](O)[C@H]6O)C(C)(C)[C@@H]5CC[C@]43C)[C@H]12

>  <measured.endpoint>
CC50 at 48 h

>  <reported.result>
150

$$$$
